- System: Colon cancer organoid
- assay-method-text: Optimized Dual-Glo assay to identify co-culture induced drug vulnerabilities using donated chemical probes and chemogenomics kinase set in O06 CRC organoid and F06 CAF mono and co-culture. […] Cell viability is reported both mono and co-culture models.
- Assay type: functional, Homo sapiens
- Design: dose or concentration left out as unconfirmed
- condition-label: Culture type Mono-Culture; Transduced with Renilla-dsRed lentivirus
property: Cell Viability (%)
// note: answer is a bare numeric in %

compound: Cn1c(C2(NC(=O)c3ccc4c(C5CCCC5)c(-c5ncc(Br)cn5)n(C)c4c3)CCC2)nc2ccc(/C=C/C(=O)O)cc21 [DELEOBUVIR]
property: Cell Viability
value-reported: 101.583

compound: O=C(Nc1cnc(Oc2ccc(F)cc2)nc1)N1CCc2ncccc2[C@@H]1c1ccc(F)cc1 [BAY-899]
property: Cell Viability
value-reported: 100.535

compound: CN(C)[C@@H]1CCN(c2cc(-c3ccccc3)nc3ccnn23)C1 [(R)-ZINC-3573]
property: Cell Viability
value-reported: 94.4779

compound: CCNC(=O)c1cc2c(N3CCOCC3C)ccnc2[nH]1 (stereo not given)
property: Cell Viability
value-reported: 91.669

compound: COc1cc(N2CCC(O)CC2)ccc1Nc1cc(Nc2ccccc2S(=O)(=O)C(C)C)c2cc[nH]c2n1
property: Cell Viability
value-reported: 109.159

## Input Recorded Cell Viability for CN(C(=O)c1ccccc1)c1cc(N(C)c2ccc3c(c2)CCc2ccc(C(=O)NCCN4CCOCC4)cc2C3=O)ccc1F [FM-743] , please?
## Output 109.641

## Input Recorded Cell Viability for CC1=CC(C)=[N+]2C1=C(CCCCc1cn(CC(=O)N3CCc4nc(NC(=O)[C@H]5CCN(C#N)C5)sc4C3)nn1)c1c(C)cc(C)n1[B-]2(F)F , please?
## Output 81.9832

## Input Recorded Cell Viability for Cc1ccc(NC(=O)Nc2cc(C(F)(F)F)ccc2F)cc1Nc1ccc2c(c1)NC(=O)/C2=C\c1ccc[nH]1 , please?
## Output 85.6075

## Input Recorded Cell Viability for COc1ccccc1C(=O)Nc1cc2c(cc1N1CCNCC1C)n(C)c(=O)n2C (stereo not given) , please?
## Output 113.336

## Input Recorded Cell Viability for O=c1nc(-c2ccccn2)sc2ccccc12 [BTZO-1] , please?
## Output 93.9423

## Input Recorded Cell Viability for COc1ccc2c(c1)O[C@@H](c1ccc(OC)c(OC)c1)C[C@H]2NC(=O)C1(c2ccc3c(c2)OC(F)(F)O3)CC1 [A-1596586] , please?
## Output 101.185

## Input Recorded Cell Viability for COc1ccc(Oc2cc(NCCC(F)(F)F)c3ncc(-c4ccc(C(=O)NC5CC5)c(C)c4)n3n2)c(F)c1F [BAY-1217389] , please?
## Output 52.2962

## Input Recorded Cell Viability for CO[C@@H](C)c1c(Nc2ccc([C@@H](N(C)C(=O)C3CCS(=O)(=O)CC3)C(F)(F)F)cc2)cnc2cc(Cl)nn12 [NVS-MALT1-C] , please?
## Output 85.1011

## Input Recorded Cell Viability for COCc1nc2cnc3cc(-c4c(C)noc4C)c(OC[C@H]4CCNC4)cc3c2n1[C@H](C)c1ccccc1 [GSK778] , please?
## Output 186.322

## Input Recorded Cell Viability for CC1=C(C)C(=O)C(C(C)(C)CC(=O)N(CCCCSC[C@H]2O[C@@H](n3cnc4c(N)ncnc43)[C@@H]3OC(C)(C)O[C@@H]32)Cc2cccc(-c3ccc(Cl)cc3)c2)=C(C)C1=O , please?
## Output 110.922

###

- Tested on: Colon cancer organoid
- assay-method-text: Optimized Dual-Glo assay to identify co-culture induced drug vulnerabilities using donated chemical probes and chemogenomics kinase set in O06 CRC organoid and F06 CAF mono and co-culture. […] Cell viability is reported both mono and co-culture models.
- Type: functional, Homo sapiens
- Set-up: dose or concentration left out as unconfirmed
- condition-label: Culture type Mono-Culture; Transduced with Renilla-dsRed lentivirus
property: Cell Viability (%)
// note: answer is a bare numeric in %

These solved cases illustrate the format of a correct answer.
compound: Nc1ncnc2c1ccn2[C@@H]1O[C@H]([C@H](O)c2ccccc2)[C@@H](O)[C@H]1O
value-units: %
value-reported: 99.7719
//
compound: CO[C@H]1CC[C@H](CNc2ccc(S(=O)(=O)NC(=O)c3ccc(N4CCN(CC5=C(c6ccc(Cl)cc6)CC(C)(C)CC5)CC4)cc3Oc3cnc4[nH]ccc4c3)cc2[N+](=O)[O-])CC1 [A-1211212]
value-units: %
value-reported: 86.311
//
compound: CCCCNNC(=O)c1ccc(Br)cc1
value-units: %
value-reported: 117.719

As a next step, examine the compound that follows.
## Input Recorded Cell Viability for O=C(/C=C/N1C[C@H]2C[C@@H]1CN2c1ccccn1)c1ccccc1O , please?
## Output 98.9347

###

- System: Colon cancer organoid
- assay-method-text: Optimized Dual-Glo assay to identify co-culture induced drug vulnerabilities using donated chemical probes and chemogenomics kinase set in O14 CRC organoid and F14 CAF mono and co-culture. […] Cell viability is reported both mono and co-culture models.
- Format: functional, Homo sapiens
- Design: dose or concentration left out as unconfirmed
- condition-label: Culture type Mono-Culture; Transduced with Renilla-dsRed lentivirus
Measured Cell Viability, listed per entry for reference.
// note: answer is a bare numeric in %

These solved cases illustrate the format of a correct answer.
compound: C[C@@H](Oc1cc(-n2cnc3ccc(CN4CCN(C)CC4)cc32)sc1C(N)=O)c1ccccc1C(F)(F)F
value-reported: 90.9348
--
compound: O=C1[C@H](Cc2ccc(O)cc2)N2C(=O)CCN(C(=O)NCc3ccccc3)[C@H]2CN1Cc1cccc2ccccc12
value-reported: 77.2237
--
compound: CN(C)C(=O)/C(C#N)=C/c1ccc(-c2nc3cnc4c(ccn4C)c3n2C2CCCCC2)o1
value-reported: 112.554
--
compound: Cc1c(NC(=O)c2ccc(C(C)(C)C)cc2)cccc1-c1cn(C)c(=O)c(Nc2ccc(C(=O)N3CCOCC3)cc2)n1
value-reported: 91.8671
--
compound: O=C(O)[C@@H]1[C@@H](Cn2nnc3ccccc3c2=O)CC[C@H]1C(=O)c1ccc(OCCC2CCOCC2)cc1
value-reported: 100.512
--
compound: N#Cc1cnc(Nc2cc(NC[C@H]3CNCCO3)c(C(F)(F)F)cn2)cn1
value-reported: 101.86

As a next step, examine the compound that follows.
## Input Recorded Cell Viability for Clc1cc2c(NC3CCCC3)nnc(-c3ccncc3)c2cc1Cl , please?
## Output 106.405

###

Measured Cell Viability, listed per entry for reference.
- Tested on: Colon cancer organoid
- assay-method-text: Optimized Dual-Glo assay to identify co-culture induced drug vulnerabilities using donated chemical probes and chemogenomics kinase set in O06 CRC organoid and F06 CAF mono and co-culture. […] Cell viability is reported both mono and co-culture models.
- Format: functional, Homo sapiens
- Design: dose or concentration left out as unconfirmed
- condition-label: Culture type Mono-Culture; Transduced with Renilla-dsRed lentivirus
// note: answer is a bare numeric in %

These solved cases illustrate the format of a correct answer.
compound: COc1ccc2c(O[C@@H]3C[C@H]4C(=O)N[C@]5(C(=O)O)CC5/C=C\CCCCC[C@H](NC(=O)OC5CCCC5)C(=O)N4C3)cc(-c3csc(NC(=O)C(C)C)n3)nc2c1C (stereo partly specified)
study-system: Colon cancer organoid
Cell Viability / %: 100.65
//
compound: NS(=O)(=O)c1cc(NC(=O)Cc2ccccc2)ccc1Oc1cccc(Cl)c1
study-system: Colon cancer organoid
Cell Viability / %: 112.706

## Input Recorded Cell Viability for O[C@H]1CC[C@H](Nc2ncc3nc(Nc4c(F)cc(F)cc4F)n([C@H]4CCOC4)c3n2)CC1 , please?
## Output 114.573

## Input Recorded Cell Viability for CNC(=O)c1cc(C(=O)NC2CC2)cn(Cc2ccccc2)c1=O , please?
## Output 131.621

## Input Recorded Cell Viability for CN1CCN(C(=O)C(C)(C)c2ccc(C(=O)Nc3cn4cc(-c5cc(C(C)(C)C)cc(C(C)(C)C)c5)ccc4n3)cc2)CC1 , please?
## Output 85.7063

## Input Recorded Cell Viability for C[C@H]1CCCN1Cc1nc2cc(NC(=O)c3ccc4cnccc4c3)ccc2[nH]1 , please?
## Output 107.295

## Input Recorded Cell Viability for COc1ccc(COc2ccc(Cc3cnc(N)nc3N)cc2OC)cc1 [GW632580X] , please?
## Output 109.596

###

- System: Colon cancer organoid
- assay-method-text: Optimized Dual-Glo assay to identify co-culture induced drug vulnerabilities using donated chemical probes and chemogenomics kinase set in O06 CRC organoid and F06 CAF mono and co-culture. […] Cell viability is reported both mono and co-culture models.
- Format: functional, Homo sapiens
- Design: dose or concentration left out as unconfirmed
- condition-label: Culture type Mono-Culture; Transduced with Renilla-dsRed lentivirus
property: Cell Viability (%)
// note: answer is a bare numeric in %

molecule: CNCCN1CCC(OCc2ccccc2)CC1
property: Cell Viability
value-units: %
value-reported: 98.6528

molecule: COc1ncc(-c2ccc3nccc(-c4ccnnc4)c3c2)cc1NS(=O)(=O)c1ccc(F)cc1F
property: Cell Viability
value-units: %
value-reported: 27.5983

molecule: O=C(NNS(=O)(=O)c1ccccc1)c1cc(-c2ccnnc2)ccc1F
property: Cell Viability
value-units: %
value-reported: 112.209

molecule: O=C(NCc1ncc(C(F)(F)F)cc1Cl)c1ccc2c(c1)C1(CCS(=O)(=O)CC1)[C@@H](C1CC1)N2S(=O)(=O)c1ccc(F)cc1
property: Cell Viability
value-units: %
value-reported: 88.5192

molecule: Cn1c(-c2csc(C3CCN(CC4=NC5N=CC=CC5N4)CC3)n2)nc2ccccc21 (configuration not stated)
property: Cell Viability
value-units: %
value-reported: 105.274

## Input Recorded Cell Viability for CC(C)(C)OC(=O)N1CCCC1CNC1CCC(c2cc(F)ccc2F)(S(=O)(=O)c2ccc(Cl)cc2)CC1 (configuration not stated) , please?
## Output 79.5795

## Input Recorded Cell Viability for CN(C)C(=O)Cn1cc(-c2ccc(-c3nnc4ccccn34)cc2)cn1 , please?
## Output 88.4504
